Numbers sourced from ChEMBL document CHEMBL4431397.

assay: Oral bioavailability in mouse at 1 mg/kg administered in cassette mode; assay type: ADME, organism-based; details: in vivo
measured-parameter: bioavailability (%)
Unit % implied. Number only.

Task: May I ask what bioavailability has been recorded for CC(=O)NCCSc1nc2cscc2c(=O)n1-c1ccc(OCC(F)(F)F)cc1 ?
Result: 41

###

assay: AUC(0 to 8 hrs) in mouse at 0.10 mg/kg, iv administered in cassette mode; assay type: ADME, organism-based; parameters: dose 0.1 mg/kg, route intravenous; details: in vivo, 0.1 mg/kg
measured-parameter: AUC(0-t) at 6 h (ng·h/mL)
Please give a number only; it is taken to be in ng·h/mL.

Task: What measured AUC(0-t) at 6 h goes with CC(=O)NCCSc1nc2cscc2c(=O)n1-c1ccc(OCC(F)(F)F)cc1 ?
Result: 65

###

assay: Volume of distribution in steady state in mouse at 0.10 mg/kg, iv administered in cassette mode; assay type: ADME, organism-based; settings: in vivo, 0.1 mg/kg, read-out: Vdss
measured-parameter: Vd (L/kg)
Kindly provide the numeric value in L/kg only, without the unit symbol.

Task: Value lookup for Vd; key = CC(=O)NCCSc1nc2cscc2c(=O)n1-c1ccc(OCC(F)(F)F)cc1
Result: 1.1

###

target: Acyl-CoA (8-3)-desaturase (Rattus norvegicus) (UniProt Q920R3); assay: Displacement of [3H]T-3364366 from D5D in Sprague-Dawley rat liver microsomes after 150 mins by liquid scintillation counting
Sequence (Q920R3 whole entry, looked up): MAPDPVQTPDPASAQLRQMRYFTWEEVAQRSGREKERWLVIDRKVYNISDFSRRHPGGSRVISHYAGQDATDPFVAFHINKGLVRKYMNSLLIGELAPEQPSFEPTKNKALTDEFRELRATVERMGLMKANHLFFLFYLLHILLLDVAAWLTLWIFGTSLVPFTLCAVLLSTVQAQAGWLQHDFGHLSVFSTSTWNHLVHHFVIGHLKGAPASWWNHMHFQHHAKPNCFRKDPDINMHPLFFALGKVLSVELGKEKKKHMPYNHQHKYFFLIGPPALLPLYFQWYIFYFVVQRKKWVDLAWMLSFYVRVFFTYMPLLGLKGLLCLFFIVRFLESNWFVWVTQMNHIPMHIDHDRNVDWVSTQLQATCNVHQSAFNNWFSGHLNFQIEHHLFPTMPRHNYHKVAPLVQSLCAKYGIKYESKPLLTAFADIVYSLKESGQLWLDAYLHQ
Active and inactive are the calls of the source. No cut-off for these calls is given here.
measured-parameter: inhibition

Task: Could you share which inhibition value was measured for Nc1ccccc1C(=O)Nc1cccc(Cl)c1 ?
Result: Active

Task: Find the recorded inhibition belonging to COc1ccc(OC)c(NC(=O)Nc2cccc(F)c2)c1 and report it.
Result: Active

Task: Can you look up the measured inhibition of Cc1cn([C@H]2C[C@@H](O)[C@@H](COC(c3ccccc3)(c3ccccc3)c3ccccc3)O2)c(=O)[nH]c1=O for me?
Result: Active

Task: Recorded inhibition of Cc1ccc2c(c1)Nc1cc(C)ccc1CC2 , please.
Result: Active

###

molecular target: Acyl-CoA (8-3)-desaturase (Rattus norvegicus, UniProt Q920R3)
measured-parameter: pKd
Scale note: pKd = -log10(concentration in M).

Task: Bench note: what pKd did CC(=O)NCCSc1nc2cscc2c(=O)n1-c1ccc(OCC(F)(F)F)cc1 show?
Result: 8.57

###

target: Acyl-CoA (8-3)-desaturase (Rattus norvegicus, UniProt Q920R3); assay: Inhibition of D5D in rat RLN10 cells using [14C]DGLA as substrate preincubated for 30 mins followed by substrate addition measured after 3 hrs; format: cell-based
measured-parameter: pIC50
For clarity, pIC50 is expressed as the negative log10 of concentration in mol/L.

Task: Lab request: please report pIC50 under test system Acyl-CoA (8-3)-desaturase (Rattus norvegicus, UniProt Q920R3) for CC(=O)NCCSc1nc2cscc2c(=O)n1-c1ccc(OCC(F)(F)F)cc1
Result: 8.68

We next turn to a different molecule, shown below.
Task: Under Acyl-CoA (8-3)-desaturase (Rattus norvegicus, UniProt Q920R3): pIC50 value of Nc1ccccc1C(=O)Nc1cccc(Cl)c1 ?
Result: 7.59

###

test: MRT in mouse at 1 mg/kg, po administered in cassette mode; type: ADME, organism-based; details: in vivo
measured-parameter: MRT (h)
Please respond with the number in h and leave the unit unwritten.

Task: Need MRT of CC(=O)NCCSc1nc2cscc2c(=O)n1-c1ccc(OCC(F)(F)F)cc1 , thanks.
Result: 1.8
